details: in ethyl acetate, 288.15 K

structure: C[C@@H]1CC[C@H]2[C@@H](C)C(=O)O[C@@H]3O[C@@]4(C)CC[C@@H]1[C@]32OO4
solubility (mole fraction): 0.00786

====

settings: in ethyl acetate, 293.15 K
quantity measured: solubility (mole fraction)

structure: C[C@@H]1CC[C@H]2[C@@H](C)C(=O)O[C@@H]3O[C@@]4(C)CC[C@@H]1[C@]32OO4
quantity measured: solubility (mole fraction)
observed result: 0.0117

====

settings: in cyclohexane, 313.15 K
quantity measured: solubility (mole fraction)

structure: C[C@@H]1CC[C@H]2[C@@H](C)C(=O)O[C@@H]3O[C@@]4(C)CC[C@@H]1[C@]32OO4
quantity measured: solubility (mole fraction)
observed result: 0.00209

====

settings: in toluene, 308.15 K
quantity measured: solubility (mole fraction)

structure: C[C@@H]1CC[C@H]2[C@@H](C)C(=O)O[C@@H]3O[C@@]4(C)CC[C@@H]1[C@]32OO4
observed result: 0.0815

====

conditions: in ethyl acetate, 318.15 K
quantity measured: solubility (mole fraction)

structure: C[C@@H]1CC[C@H]2[C@@H](C)C(=O)O[C@@H]3O[C@@]4(C)CC[C@@H]1[C@]32OO4
quantity measured: solubility (mole fraction)
observed result: 0.0499

====

settings: in chloroform, 283.15 K
quantity measured: solubility (mole fraction)

structure: C[C@@H]1CC[C@H]2[C@@H](C)C(=O)O[C@@H]3O[C@@]4(C)CC[C@@H]1[C@]32OO4
quantity measured: solubility (mole fraction)
observed result: 0.0487

====

conditions: in methanol, 303.15 K
quantity measured: solubility (mole fraction)

structure: C[C@@H]1CC[C@H]2[C@@H](C)C(=O)O[C@@H]3O[C@@]4(C)CC[C@@H]1[C@]32OO4
quantity measured: solubility (mole fraction)
observed result: 0.00195

====

details: in acetonitrile, 288.15 K
quantity measured: solubility (mole fraction)

structure: C[C@@H]1CC[C@H]2[C@@H](C)C(=O)O[C@@H]3O[C@@]4(C)CC[C@@H]1[C@]32OO4
observed result: 0.000257

====

conditions: in acetone, 293.15 K
quantity measured: solubility (mole fraction)

structure: C[C@@H]1CC[C@H]2[C@@H](C)C(=O)O[C@@H]3O[C@@]4(C)CC[C@@H]1[C@]32OO4
quantity measured: solubility (mole fraction)
observed result: 0.00673

====

settings: in cyclohexane, 323.15 K

structure: C[C@@H]1CC[C@H]2[C@@H](C)C(=O)O[C@@H]3O[C@@]4(C)CC[C@@H]1[C@]32OO4
solubility (mole fraction): 0.00341

====

conditions: in toluene, 288.15 K

structure: C[C@@H]1CC[C@H]2[C@@H](C)C(=O)O[C@@H]3O[C@@]4(C)CC[C@@H]1[C@]32OO4
solubility (mole fraction): 0.0435

====

conditions: in acetone, 318.15 K

structure: C[C@@H]1CC[C@H]2[C@@H](C)C(=O)O[C@@H]3O[C@@]4(C)CC[C@@H]1[C@]32OO4
solubility (mole fraction): 0.0223

====

conditions: in methanol, 293.15 K
quantity measured: solubility (mole fraction)

structure: C[C@@H]1CC[C@H]2[C@@H](C)C(=O)O[C@@H]3O[C@@]4(C)CC[C@@H]1[C@]32OO4
observed result: 0.00111

====

details: in acetone, 303.15 K
quantity measured: solubility (mole fraction)

structure: C[C@@H]1CC[C@H]2[C@@H](C)C(=O)O[C@@H]3O[C@@]4(C)CC[C@@H]1[C@]32OO4
observed result: 0.0114
